Test system: CAS-1;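 further: growth inhibition of CAS-1 cells, measured with a cell viability assay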
Experiment: cells
Assay type: functional, cell-based
Conditions: Homo sapiens
Description: SANGER: Inhibition of human CAS-1 cell growth in a cell viability assay.
ASSAY_ENDPOINT: IC50 (µM)

STRUCTURE	TESTED_TARGET	ASSAY_ENDPOINT	DISPLAY_UNIT	READOUT_RELATION	ENDPOINT_VALUE
NC(=O)c1ncn([C@@H]2O[C@H](COP(=O)(O)O)[C@@H](O)[C@H]2O)c1N	CAS-1	IC50	µM	>	2000
CC[C@]1(O)C[C@@H]2CN(CCc3c([nH]c4ccccc34)[C@@](C(=O)OC)(c3cc4c(cc3OC)N(C)[C@H]3[C@@](O)(C(=O)OC)[C@H](OC(C)=O)[C@]5(CC)C=CCN6CC[C@]43[C@@H]65)C2)C1	CAS-1	IC50	µM	=	0.0931
CC(C)=CC[C@@H](O)C1=CC(=O)c2c(O)ccc(O)c2C1=O	CAS-1	IC50	µM	=	0.462

====

Entries and their IC50 values follow.
Tested on: NCI-H322M;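 further: cell viability assay measuring inhibition of growth of human NCI-H322M cells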
Assay: cells
Type: functional, cell-based
Settings: Homo sapiens
Description: SANGER: Inhibition of human NCI-H322M cell growth in a cell viability assay.
ASSAY_ENDPOINT: IC50

> print(dat)
                                   compound  assay.endpoint  endpoint.value
1  Cc1ccc(NC(=O)c2cccc(C(C)(C)C#N)c2)cc1Nc1ccc2ncn(C)c(=O)c2c1            IC50          > 4 µM
2  Fc1cc(-c2cc[nH]/c(=N/c3ccc(-n4cnc(N5CCOCC5)n4)cc3)n2)cc(N2CCOCC2)c1            IC50       > 5.12 µM
3        C/C(O)=C(\C#N)C(=O)Nc1cc(Br)ccc1Br            IC50         > 16 µM
4  CC(O)(CS(=O)(=O)c1ccc(F)cc1)C(=O)Nc1ccc(C#N)c(C(F)(F)F)c1 (configuration not stated) [BICALUTAMIDE]            IC50       > 1.02 µM
5  Cc1[nH]c(/C=C2\C(=O)Nc3ccc(S(=O)(=O)Cc4c(Cl)cccc4Cl)cc32)c(C)c1C(=O)N1CCC[C@@H]1CN1CCCC1            IC50          > 2 µM
6  CCNc1cc(N[C@H]2CC[C@@H](O)CC2)nc(Nc2ccc3c(ccn3Cc3ccccc3)c2)n1            IC50       > 5.12 µM
7  Cc1n[nH]c2ccc(-c3cncc(OC[C@@H](N)Cc4c[nH]c5ccccc45)c3)cc12            IC50       > 1.02 µM

====

Entries and their IC50 values follow.
Tested on: NCI-H1666;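 further: growth inhibition of the cell line, read out with a cell viability assay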
Test: cells
Assay type: functional, cell-based
Settings: Homo sapiens
Description: SANGER: Inhibition of human NCI-H1666 cell growth in a cell viability assay.
ASSAY_ENDPOINT: IC50

MOLECULE	ENDPOINT_VALUE
O=c1cc(N2CCOCC2)oc2c(-c3cccc4c3sc3ccccc34)cccc12	> 2000 nM
CC[C@]1(O)C[C@@H]2CN(CCc3c([nH]c4ccccc34)[C@@](C(=O)OC)(c3cc4c(cc3OC)N(C)[C@H]3[C@@](O)(C(=O)OC)[C@H](OC(C)=O)[C@]5(CC)C=CCN6CC[C@]43[C@@H]65)C2)C1 [VINBLASTINE]	20.1 nM
CCCS(=O)(=O)Nc1ccc(F)c(C(=O)c2c[nH]c3ncc(Cl)cc23)c1F [PLX-4720]	> 10000 nM
C[C@]12O[C@H](C[C@]1(O)CO)n1c3ccccc3c3c4c(c5c6ccccc6n2c5c31)CNC4=O [LESTAURTINIB]	1890 nM
